Data provenance: paper PMC5171792

assay-overview: in vitro
conditions: dog
measured-metric: CC50 (µM)
Report only the number, with the unit µM understood.

# compound, u, CC50
measured = [
    ("CCC(CC)O[C@@H]1C=C(C(=O)O)C[C@H](N)[C@H]1NC(C)=O [Oseltamivir carboxylate, reference compound]", "µM", 351),
    ("COc1cc(C=O)cc(O)c1O [MY23, 3-hydroxyvanillin]", "µM", 601),
    ("CCCCOC(=O)/C=C/c1cc(OC)c(O)c([N+](=O)[O-])c1 [MY15]", "µM", 352),
    ("COc1cc(C=O)ccc1O [VN, Vanillin, reference compound]", "µM", 657),
    ("CCOC(=O)/C=C/c1cc(OC)c(OC(C)C)c([N+](=O)[O-])c1 [MY3]", "µM", 321),
]

Next:
Recorded CC50 for COc1cc(C=O)cc(N=C(N)N)c1O [MY21, guanidino vanillin] , please? 478
